# Target: ERα^wt-LBD fused to Gal4-DBD (Homo sapiens)
# Construct: ERα-LBD (amino acids 303-595) based on GenBank NM_000125
# Sequence (P03372 303-595): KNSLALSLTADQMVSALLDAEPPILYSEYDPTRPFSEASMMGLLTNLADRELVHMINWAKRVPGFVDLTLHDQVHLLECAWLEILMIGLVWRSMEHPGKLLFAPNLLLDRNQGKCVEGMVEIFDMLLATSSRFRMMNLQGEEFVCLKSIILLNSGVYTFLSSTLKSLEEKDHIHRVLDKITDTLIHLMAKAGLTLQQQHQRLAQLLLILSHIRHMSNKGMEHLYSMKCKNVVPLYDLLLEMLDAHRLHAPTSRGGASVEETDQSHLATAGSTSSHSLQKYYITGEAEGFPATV
# Method: U2OS-ERα^wt-LBD/9xGal4UAS luciferase reporter cell line
pEC50: −log10 of the molar value.
# Lookup of reported pEC50 keyed by entry

Solved entries (count: 5):
INSERT INTO results (compound, value_observed) VALUES
  ('C[C@]12C[C@H](O)[C@H]3[C@@H](CCC4=CC(=O)CC[C@@]43C)[C@@H]1CC[C@@H]2C(=O)CO', '< 5.00'),
  ('C[C@]12CCC(=O)C=C1CC[C@@H]1[C@@H]2[C@@H](O)C[C@]2(C=O)[C@@H](C(=O)CO)CC[C@@H]12', '< 5.00'),
  ('CCCc1c(-c2ccc(O)cc2)nn(-c2ccc(O)cc2)c1-c1ccc(O)cc1', 8.62),
  ('CC(=O)S[C@@H]1CC2=CC(=O)CC[C@]2(C)[C@H]2CC[C@@]3(C)[C@@H](CC[C@@]34CCC(=O)O4)[C@H]12', '< 5.00'),
  ('C[C@]12C=CC(=O)C=C1CC[C@H]1[C@@H]3C[C@@H](O)[C@](O)(C(=O)CO)[C@@]3(C)C[C@H](O)[C@@]12F', '< 5.00');

Request: Return pEC50 measured with ERα^wt-LBD fused to Gal4-DBD (Homo sapiens) given this compound: CC(C)C(=O)Nc1ccc([N+](=O)[O-])c(C(F)(F)F)c1 [Flutamide, flutamide]
Result: < 5.00

Request: Entry CCC(=O)[C@@]1(C)CC[C@H]2[C@@H]3CCC4=CC(=O)CCC4=C3CC[C@@]21C [Promegestone (R5020), promegestone] please
Result: < 5.00

Request: Entry `C#C[C@]1(O)CC[C@H]2[C@@H]3CCC4=Cc5oncc5C[C@]4(C)[C@H]3CC[C@@]21C` please
Result: 6.61

* * *

# Lookup of reported EC50 keyed by entry
# Target: human ERβ (full-length) (Homo sapiens, UniProt Q92731)
# Construct: expression vectors encoding full-length steroid receptors: pcDNA3-hERα and pcDNA3-ERβ; expressed in transfected cells; host or cells: U2OS
# Sequence (Q92731 whole entry): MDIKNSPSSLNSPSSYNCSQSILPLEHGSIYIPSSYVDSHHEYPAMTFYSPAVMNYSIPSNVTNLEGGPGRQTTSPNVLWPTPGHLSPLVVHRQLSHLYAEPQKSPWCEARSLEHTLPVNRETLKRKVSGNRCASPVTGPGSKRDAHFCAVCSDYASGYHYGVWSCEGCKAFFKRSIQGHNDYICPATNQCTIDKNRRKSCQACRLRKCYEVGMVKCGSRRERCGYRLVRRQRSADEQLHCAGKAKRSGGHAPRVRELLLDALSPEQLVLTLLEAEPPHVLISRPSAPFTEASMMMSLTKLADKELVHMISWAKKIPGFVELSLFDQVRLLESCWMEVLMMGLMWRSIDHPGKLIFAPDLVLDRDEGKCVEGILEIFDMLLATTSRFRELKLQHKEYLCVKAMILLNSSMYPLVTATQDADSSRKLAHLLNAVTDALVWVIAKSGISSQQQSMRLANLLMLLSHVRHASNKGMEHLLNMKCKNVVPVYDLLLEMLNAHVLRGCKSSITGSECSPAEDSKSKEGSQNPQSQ
# Method: U2OS-ERβ/3xERE luciferase reporter cell line (full-length receptor)
# Assay type: cell-based
# Conditions used: read-out: Log EC50 (converted)

Solved entries (count: 2):
INSERT INTO results (molecule, target, value_observed) VALUES
  ('CC(=O)O[C@]1(C(C)=O)CC[C@H]2[C@@H]3C=C(Cl)C4=CC(=O)[C@@H]5C[C@@H]5[C@]4(C)[C@H]3CC[C@@]21C [Cyproterone acetate, cyproterone acetate]', 'human ERβ (full-length) (Homo sapiens, UniProt Q92731)', '> 10 µM'),
  ('C[C@]12CCC(=O)C=C1CC[C@@H]1[C@@H]2[C@@H](O)C[C@]2(C=O)[C@@H](C(=O)CO)CC[C@@H]12', 'human ERβ (full-length) (Homo sapiens, UniProt Q92731)', '> 10 µM');

Continue with the molecule presented below.
Request: Dear colleague, I am looking for the recorded EC50 of the following molecule: CC(=O)C1(O)CCC2C3CCC4=CC(=O)CCC4(C)C3CCC21C (stereo not drawn) [17α-hydroxyprogesterone]
Result: > 10 µM
